Below, each entry is listed alongside its reported IC50.
# measured_target: NMDA receptor-ionophore complex (site labeled by [3H]MK-801)
# assay_explanation: Inhibition of [3H]MK-801 binding in rat cortical/hippocampal washed membrane preparations
# details: read-out: IC50 (μM) vs. [3H]MK-801; rat cortical/hippocampal washed membranes
Where a name gives a salt, the structure may show the parent alone.

molecule: COc1ccc(C(=CCN)c2cccc(F)c2)cc1F [Compound 172, hydrochloride]
unit_info: µM
IC50: 37.3
--
molecule: COc1ccccc1CC(=O)NCCCOCCCCOCCCN [Compound 18]
unit_info: µM
IC50: 34
--
molecule: NCCC(c1ccccc1F)c1ccccc1F [Compound 53, 3,3-bis(2-fluorophenyl)-1-propylamine]
unit_info: µM
IC50: 4.2
--
molecule: NCCC(c1ccsc1)c1cccc(F)c1 (centres unmarked) [Compound 90]
unit_info: µM
IC50: 1.4
--
molecule: Cc1ccccc1OC(CCN)c1cccc(F)c1 (centres unmarked) [Compound 181]
unit_info: µM
IC50: 0.632
